Target: Acetylcholine-binding protein (Lymnaea stagnalis)
Sequence (P58154 whole entry): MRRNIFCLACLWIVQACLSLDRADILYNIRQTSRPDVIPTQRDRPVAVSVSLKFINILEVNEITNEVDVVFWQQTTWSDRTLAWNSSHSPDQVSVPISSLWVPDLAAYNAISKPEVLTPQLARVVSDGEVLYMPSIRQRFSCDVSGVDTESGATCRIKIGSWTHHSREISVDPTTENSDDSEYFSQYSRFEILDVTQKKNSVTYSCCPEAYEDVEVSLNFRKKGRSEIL
Assay Overview: Binding affinity to Lymnaea stagnalis Acetylcholine-binding protein assessed as dissociation constant
Property Measured: pKd
Lab note — pKd values are minus log10 of concentrations in M.

Requested read-out: pKd. Entry: Cn1c(=O)cc(OCc2cn(C3CC4CC3[N+]4(C)C)nn2)c2ccccc21 (stereo unspecified)
9.02

###

Assay Overview: Inhibition of bovine pancrease trypsin by microplate reader analysis
Set-up: species or system Bos taurus
Residues, ends and D or L forms follow the SMILES beside them.
Property Measured: pKi
Lab note — pKi values are minus log10 of concentrations in M.

Requested read-out: pKi. Entry: CC[C@H](C)[C@@H]1NC(=O)[C@H](C)n2nncc2[C@@H]2CCCN2C(=O)[C@H]([C@@H](C)CC)NC(=O)[C@H](CO)NC(=O)[C@H](CCCCN)NC(=O)[C@H]([C@@H](C)O)NC(=O)[C@@H](NC(=O)[C@H](CCCNC(=N)N)NC(=O)CN)CSSC[C@@H](C(=O)N[C@@H](Cc2ccccc2)C(=O)N2CCC[C@H]2C(=O)N[C@@H](CC(=O)O)C(=O)O)NC1=O (HELM PEPTIDE1{G.R.C.T.K.S.I.[C[C@@H](C(=O)[*:2])n1nncc1[C@@H]1CCCN1[*:1]].I.C.F.P.D}$PEPTIDE1,PEPTIDE1,3:R3-10:R3$$$V2.0)
6.59

Item: CC[C@H](C)[C@@H]1NC(=O)[C@H](C)NC(=O)[C@@H]2CCCN2C(=O)[C@H]([C@@H](C)CC)NC(=O)[C@H](CO)NC(=O)[C@H](CCCCN)NC(=O)[C@H]([C@@H](C)O)NC(=O)[C@@H](NC(=O)[C@H](CCCNC(=N)N)NC(=O)CN)CSSC[C@@H](C(=O)N[C@@H](Cc2ccccc2)C(=O)N2CCC[C@H]2C(=O)N[C@@H](CC(=O)O)C(=O)O)NC1=O (HELM PEPTIDE1{G.R.C.T.K.S.I.P.A.I.C.F.P.D}$PEPTIDE1,PEPTIDE1,3:R3-11:R3$$$V2.0)
8.49

Item: CC[C@H](C)[C@@H]1NC(=O)[C@@H]2CCCN2C(=O)[C@H](C)n2nncc2[C@H]([C@@H](C)CC)NC(=O)[C@H](CO)NC(=O)CNC(=O)[C@H]([C@@H](C)O)NC(=O)[C@@H](NC(=O)[C@H](CCCNC(=N)N)NC(=O)CN)CSSC[C@@H](C(=O)N[C@@H](Cc2ccccc2)C(=O)N2CCC[C@H]2C(=O)N[C@@H](CC(=O)O)C(=O)O)NC1=O (HELM PEPTIDE1{G.R.C.T.G.S.[CC[C@H](C)[C@H](N[*:1])c1cnnn1[C@@H](C)C(=O)[*:2]].P.I.C.F.P.D}$PEPTIDE1,PEPTIDE1,3:R3-10:R3$$$V2.0)
7.47

Ref: ChEMBL document CHEMBL6182901
